For each record, write down the corresponding EC50.
Target: UniProtKB P30556
Sequence (P30556 1-359): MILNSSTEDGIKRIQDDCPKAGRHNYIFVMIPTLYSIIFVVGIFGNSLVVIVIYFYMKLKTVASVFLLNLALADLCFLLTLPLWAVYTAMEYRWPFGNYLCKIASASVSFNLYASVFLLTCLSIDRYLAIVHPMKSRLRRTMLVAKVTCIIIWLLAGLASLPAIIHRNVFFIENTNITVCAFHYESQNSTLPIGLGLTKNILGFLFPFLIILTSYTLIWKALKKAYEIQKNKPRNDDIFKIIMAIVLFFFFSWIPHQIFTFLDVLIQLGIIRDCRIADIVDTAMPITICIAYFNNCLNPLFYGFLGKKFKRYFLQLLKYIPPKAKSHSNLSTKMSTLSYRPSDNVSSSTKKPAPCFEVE
Assay: Gαq activation BRET (GABY sensor) in HEK293 cells expressing AT1R
Assay type: cell-based
Set-up: expressed in transfected cells; host or cells: HEK293 cells, transient PEI transfection
Settings: HEK293 cells transiently expressing human AT1R; Gαq-RlucII/Gβ1/Gγ1-GFP10 (GABY) BRET sensor; BRET read 10 min after ligand; mean ± SEM of at least three to five independent experiments; SEM
Provide only the numeric value, understood in nM.

Reading of EC50 for "CC[C@H](C)[C@H](NC(=O)[C@H](Cc1ccc(O)cc1)NC(=O)[C@@H](NC(=O)[C@H](CCCNC(=N)N)NC(=O)[C@@H](N)CC(=O)O)C(C)C)C(=O)N[C@@H](Cc1c[nH]cn1)C(=O)N1CCC[C@H]1C(=O)N[C@@H](Cc1ccc2ccccc2c1)C(=O)O" with UniProtKB P30556: 3.9

Form field, EC50 with UniProtKB P30556, item "CC[C@H](C)[C@H](NC(=O)[C@H](Cc1ccc(O)cc1)NC(=O)[C@@H](NC(=O)[C@H](CCCNC(=N)N)NC(=O)[C@@H](N)CC(=O)O)C(C)C)C(=O)N[C@@H](Cc1c[nH]cn1)C(=O)N1CCC[C@H]1C(=O)N[C@@H](Cc1cccnc1)C(=O)O" : 22

# value of EC50, UniProtKB P30556, item "CC[C@H](C)[C@H](NC(=O)[C@H](Cc1ccc(O)cc1)NC(=O)[C@@H](NC(=O)[C@H](CCCNC(=N)N)NC(=O)[C@@H](N)CC(=O)O)C(C)C)C(=O)N[C@@H](Cc1c[nH]cn1)C(=O)N1CCC[C@H]1C(=O)N[C@@H](Cc1ccc(-c2ccccc2)cc1)C(=O)O" = 16

EC50 for UniProtKB P30556 with input "CC[C@H](C)[C@H](NC(=O)[C@H](Cc1ccc(O)cc1)NC(=O)[C@@H](NC(=O)[C@H](CCCNC(=N)N)NC(=O)[C@@H](N)CC(=O)O)C(C)C)C(=O)N[C@@H](Cc1c[nH]cn1)C(=O)N1CCC[C@H]1C(=O)N[C@@H](Cc1cscn1)C(=O)O" equals 14

Lab note: molecule "CC[C@H](C)[C@H](NC(=O)[C@H](Cc1ccc(O)cc1)NC(=O)[C@@H](NC(=O)[C@H](CCCNC(=N)N)NC(=O)[C@@H](N)CC(=O)O)C(C)C)C(=O)N[C@@H](Cc1c[nH]cn1)C(=O)N1CCC[C@H]1C(=O)N[C@@H](Cc1ccncc1)C(=O)O" tested on UniProtKB P30556; recorded EC50 was 7.5

Item "CC[C@H](C)[C@H](NC(=O)[C@H](Cc1ccc(O)cc1)NC(=O)[C@@H](NC(=O)[C@H](CCCNC(=N)N)NC(=O)[C@@H](N)CC(=O)O)C(C)C)C(=O)N[C@@H](Cc1c[nH]cn1)C(=O)N1CCC[C@H]1C(=O)N[C@@H](Cc1ccccn1)C(=O)O" ; assay system UniProtKB P30556; EC50 reported as 6.9

Reported EC50 (UniProtKB P30556) for entry CC[C@H](C)[C@H](NC(=O)[C@H](Cc1ccc(O)cc1)NC(=O)[C@@H](NC(=O)[C@H](CCCNC(=N)N)NC(=O)[C@@H](N)CC(=O)O)C(C)C)C(=O)N[C@@H](Cc1c[nH]cn1)C(=O)N1CCC[C@H]1C(=O)N[C@@H](Cc1cccc(O)c1)C(=O)O [24b] is 4.6

Test item "CC[C@H](C)[C@H](NC(=O)[C@H](Cc1ccc(O)cc1)NC(=O)[C@@H](NC(=O)[C@H](CCCNC(=N)N)NC(=O)[C@@H](N)CC(=O)O)C(C)C)C(=O)N[C@@H](Cc1c[nH]cn1)C(=O)N1CCC[C@H]1C(=O)N[C@@H](CC1CCCCC1)C(=O)O" ; UniProtKB P30556; reported EC50 was 5.5
